# target.desc: HCV NS3 helicase NS3h_1b(con1) (Hepatitis C virus genotype 1b)
# Construct: truncated C-terminally His-tagged NS3 proteins lacking the N-terminal protease, called NS3h; His-tag (C); made in house
# Sequence (Q9WMX2 1192-1657): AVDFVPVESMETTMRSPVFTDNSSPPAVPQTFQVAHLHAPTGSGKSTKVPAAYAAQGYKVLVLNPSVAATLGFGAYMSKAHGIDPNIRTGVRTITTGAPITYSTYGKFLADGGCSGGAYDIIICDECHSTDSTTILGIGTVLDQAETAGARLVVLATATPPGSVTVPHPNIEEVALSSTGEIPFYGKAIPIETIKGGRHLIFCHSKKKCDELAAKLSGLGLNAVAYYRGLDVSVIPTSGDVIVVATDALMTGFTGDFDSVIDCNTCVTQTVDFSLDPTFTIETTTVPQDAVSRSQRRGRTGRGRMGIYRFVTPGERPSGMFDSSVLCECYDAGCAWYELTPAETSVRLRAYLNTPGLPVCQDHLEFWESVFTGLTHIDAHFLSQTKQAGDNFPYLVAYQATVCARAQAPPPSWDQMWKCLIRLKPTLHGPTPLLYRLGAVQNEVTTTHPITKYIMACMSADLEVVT
# experiment.description: MBHA screen of NCI mechanistic set library at 20 μM (percent inhibition, compound interference)
# Format: biochemical
# condition.summary: compounds at 20 μM, MBHA with DNA substrate; calculated from Equation 1
Residues, ends and D or L forms follow the SMILES beside them. *: point of attachment. CH2Cl = ClC*
Rule: Inh. (%) (Inhibition) of -10% or more gives met; anything lower gives not met.

compound: COc1cc(/C=C(\C)c2ccc3c(c2)OCO3)cc(OC)c1OC [Compound 648422]
target.desc: HCV NS3 helicase NS3h_1b(con1) (Hepatitis C virus genotype 1b)
assigned.class: not met

compound: C[Si](C)(CN)CN.[Cl][Pt][Cl] [Compound 603577]
target.desc: HCV NS3 helicase NS3h_1b(con1) (Hepatitis C virus genotype 1b)
assigned.class: met

compound: Cc1ccc(C2NC(=O)c3ccccc3N2)s1 (stereo not drawn) [Compound 175634]
target.desc: HCV NS3 helicase NS3h_1b(con1) (Hepatitis C virus genotype 1b)
assigned.class: met

compound: CO[C@H]1C[C@@H]2CC[C@@H](C)[C@@](O)(O2)C(=O)C(=O)N2CCCC[C@H]2C(=O)O[C@H]([C@H](C)C[C@@H]2CC[C@@H](O)[C@H](OC)C2)CC(=O)[C@H](C)/C=C(\C)[C@@H](O)[C@@H](OC)C(=O)[C@H](C)C[C@H](C)/C=C/C=C/C=C/1C [Compound 226080]
target.desc: HCV NS3 helicase NS3h_1b(con1) (Hepatitis C virus genotype 1b)
assigned.class: met

compound: O=C1c2ccccc2C(=O)c2c(O)c(NCCNCCO)cc(O)c21 [Compound 316157]
target.desc: HCV NS3 helicase NS3h_1b(con1) (Hepatitis C virus genotype 1b)
assigned.class: met

compound: COc1ccc2c(c1[N+](=O)[O-])CC[C@@H]1[C@@H]2CC[C@]2(C)C(=O)CC[C@@H]12 [Compound 321803]
target.desc: HCV NS3 helicase NS3h_1b(con1) (Hepatitis C virus genotype 1b)
assigned.class: not met

compound: CC(C)(C)c1ccc(OC2CCO2)cc1 (stereo not drawn) [Compound 635975]
target.desc: HCV NS3 helicase NS3h_1b(con1) (Hepatitis C virus genotype 1b)
assigned.class: met

compound: CC1(C)CCCC2(C)C3=C(CCC12)C(=O)OC3 (stereo not drawn) [Compound 375294]
target.desc: HCV NS3 helicase NS3h_1b(con1) (Hepatitis C virus genotype 1b)
assigned.class: met

compound: C[C@@H]1C[C@H]2CC[C@H](O2)[C@H](C)C(=O)O[C@@H](C)C[C@@H]2CC[C@@H](O2)[C@@H](C)C(=O)O[C@H](C)C[C@H]2CC[C@H](O2)[C@H](C)C(=O)O[C@@H](C)C[C@@H]2CC[C@@H](O2)[C@@H](C)C(=O)O1 [Compound 52141]
target.desc: HCV NS3 helicase NS3h_1b(con1) (Hepatitis C virus genotype 1b)
assigned.class: not met

compound: CCOC(=O)Nc1nc2ccc(Cn3cccc3)cc2[nH]1 [Compound 639754]
target.desc: HCV NS3 helicase NS3h_1b(con1) (Hepatitis C virus genotype 1b)
assigned.class: not met

compound: O=[N+]([O-])c1cccc2c(N=Nc3ccc4ccccc4c3O)c(O)cc(S(=O)(=O)[O-])c12.[Na+] [Compound 85561]
target.desc: HCV NS3 helicase NS3h_1b(con1) (Hepatitis C virus genotype 1b)
assigned.class: met

compound: CCOC(=O)/C(=C/c1ccc(N(C)C)cc1)N(CC)CC [Compound 643774]
target.desc: HCV NS3 helicase NS3h_1b(con1) (Hepatitis C virus genotype 1b)
assigned.class: met

compound: C=C(C)[C@@H]1CC[C@]2(C)CC[C@]3(C)[C@H](CC[C@@H]4[C@@]5(C)CC[C@H](O)C(C)(C)[C@@H]5CC[C@]43C)[C@@H]12 [Compound 90487]
target.desc: HCV NS3 helicase NS3h_1b(con1) (Hepatitis C virus genotype 1b)
assigned.class: not met

compound: COc1cc(/C=C2\S/C(=N/Nc3nc(-c4ccc(Br)cc4)cs3)NC2=O)cc(OC)c1OC [Compound 657457]
target.desc: HCV NS3 helicase NS3h_1b(con1) (Hepatitis C virus genotype 1b)
assigned.class: not met

compound: CN1CCN(CCCN2c3ccccc3Sc3ccc(C(F)(F)F)cc32)CC1 [Compound 46061]
target.desc: HCV NS3 helicase NS3h_1b(con1) (Hepatitis C virus genotype 1b)
assigned.class: met

compound: C/C(=N\NC(=S)N(C)C)c1ccccn1.[Cu][Br] [Compound 635448]
target.desc: HCV NS3 helicase NS3h_1b(con1) (Hepatitis C virus genotype 1b)
assigned.class: met

compound: CN(CCc1ccccn1)c1ccc2c(c1)C(=O)c1ccccc1-2 [Compound 24048]
target.desc: HCV NS3 helicase NS3h_1b(con1) (Hepatitis C virus genotype 1b)
assigned.class: not met

compound: CC(=O)O[C@]1(C(C)=O)CC[C@H]2[C@@H]3C[C@H](C)C4=CC(=O)C=C[C@]4(C)[C@@]3(F)[C@@H](O)C[C@@]21C [Compound 47438]
target.desc: HCV NS3 helicase NS3h_1b(con1) (Hepatitis C virus genotype 1b)
assigned.class: not met

compound: CCNCCCCNCCCCNCCCCNCCCCNCC.Cl [Compound 640506]
target.desc: HCV NS3 helicase NS3h_1b(con1) (Hepatitis C virus genotype 1b)
assigned.class: met

compound: CN(CO)c1nc(N(C)CO)nc(N(C)CO)n1 [Compound 283162]
target.desc: HCV NS3 helicase NS3h_1b(con1) (Hepatitis C virus genotype 1b)
assigned.class: not met

compound: Cc1ccc2c(ccc(C=Cc3ccc(O)c4ncccc34)[n+]2C)c1 [Compound 85700]
target.desc: HCV NS3 helicase NS3h_1b(con1) (Hepatitis C virus genotype 1b)
assigned.class: met

compound: CCN(CC)CCN1C(=O)c2c(c3c4cccc(Cl)c4n(C4OC(CO)C(OC)C(O)C4O)c3c3[nH]c4c(Cl)cccc4c23)C1=O (stereo not drawn) [Compound 640199]
target.desc: HCV NS3 helicase NS3h_1b(con1) (Hepatitis C virus genotype 1b)
assigned.class: met

compound: COC(=O)c1c[nH]c2c1-c1cc(C(=O)OCc3ccccc3)n(S(=O)(=O)c3ccc(C)cc3)c1C(=O)C2=O [Compound 679524]
target.desc: HCV NS3 helicase NS3h_1b(con1) (Hepatitis C virus genotype 1b)
assigned.class: met

compound: C=C(NC(=O)C(=C)NC(=O)c1csc(C2=N[C@@H]3c4csc(n4)C4NC(=O)c5csc(n5)C([C@](C)(O)[C@@H](C)O)NC(=O)[C@H]5CSC(=N5)/C(=C/C)NC(=O)C(C(C)O)NC(=O)c5csc(n5)C3(CC2)NC(=O)[C@H](C)NC(=O)C(=C)NC(=O)C(=C)NC(=O)C(C(C)C)N[C@@H]2C=Cc3c([C@@H](C)O)cc(nc3[C@H]2O)C(=O)OC4C)n1)C(N)=O (stereo partly drawn) [Compound 285116]
target.desc: HCV NS3 helicase NS3h_1b(con1) (Hepatitis C virus genotype 1b)
assigned.class: met

compound: COC1C(C)OC(OC2CC(C)(O)Cc3cc4c(c(O)c32)C(=O)c2c(O)cc3c(c2C4=O)OC2OC3(C)C(O)C(N(C)C)C2O)C(OC)C1(C)OC (stereo not drawn) [Compound 265450]
target.desc: HCV NS3 helicase NS3h_1b(con1) (Hepatitis C virus genotype 1b)
assigned.class: met

compound: CC(=O)NC(CC(C)C)C(=O)NC(Cc1ccccc1)C(=O)CCl (stereo not drawn) [Compound 173905] (Ac-Leu-Phe-CH2Cl; configuration not given here)
target.desc: HCV NS3 helicase NS3h_1b(con1) (Hepatitis C virus genotype 1b)
assigned.class: not met

----------
# target.desc: HCV NS3 helicase NS3h_1b(con1) (Hepatitis C virus genotype 1b)
# Construct: truncated C-terminally His-tagged NS3 proteins lacking the N-terminal protease, called NS3h; His-tag (C); made in house
# experiment.description: MBHA screen of NCI mechanistic set library at 20 μM (percent inhibition, compound interference)
# Type: biochemical
# condition.summary: compounds at 20 μM; assay interference calculated with Equation 2 (fluorescence vs DMSO-only controls before ATP)
Positions of bridges follow the written chain, without caps; N, C: chain ends. Non-standard residues stand in square brackets, D forms with d. Residues, ends and D or L forms follow the SMILES beside them. ξ: configuration not given here. *: point of attachment. ξNMePhe(4-NMe2) = CNC(Cc1ccc(N(C)C)cc1)C(=O)O; Picolinoyl(3-OH) = O=C(c1ncccc1O)*; ξPip(4-oxo) = O=C1CCNC(C(=O)O)C1; Phg = N[CH](C(=O)O)c1ccccc1; Abu = CC[CH](N)C(=O)O

molecule: c1ccc2c(c1)nnn1c3cnccc3nc21
target.desc: HCV NS3 helicase NS3h_1b(con1) (Hepatitis C virus genotype 1b)
display.unit: Ratio
Int.* (Ratio) (Interference): 0.91

molecule: Cl.Nc1nc(N)c2ncn(-c3ccccc3)c2n1
target.desc: HCV NS3 helicase NS3h_1b(con1) (Hepatitis C virus genotype 1b)
display.unit: Ratio
Int.* (Ratio) (Interference): 0.99

molecule: CC[C@H](C)C(=O)O[C@H]1CCC=C2C=C[C@H](C)[C@H](CC[C@@H]3C[C@@H](O)CC(=O)O3)[C@H]21
target.desc: HCV NS3 helicase NS3h_1b(con1) (Hepatitis C virus genotype 1b)
display.unit: Ratio
Int.* (Ratio) (Interference): 1.08

molecule: O=C1/C(=C\c2ccccc2)CN(C(=O)/C=C/c2ccccc2)C/C1=C\c1ccccc1
target.desc: HCV NS3 helicase NS3h_1b(con1) (Hepatitis C virus genotype 1b)
display.unit: Ratio
Int.* (Ratio) (Interference): 0.86

molecule: Cc1c(C(=O)C/C(=N\O)C(=O)Nc2cc(Cl)c(Cl)cc2Cl)[n+](=O)c2ccccc2n1[O-]
target.desc: HCV NS3 helicase NS3h_1b(con1) (Hepatitis C virus genotype 1b)
display.unit: Ratio
Int.* (Ratio) (Interference): 0.82

molecule: CC(CN1CC(=O)NC(=O)C1)N1CC(=O)NC(=O)C1 (centres unmarked)
target.desc: HCV NS3 helicase NS3h_1b(con1) (Hepatitis C virus genotype 1b)
display.unit: Ratio
Int.* (Ratio) (Interference): 1.13

molecule: CC1OC1C(=O)C1(O)C(C)C(O)C23OC2(C(O)c2c(O)cccc2C3=O)C1O (centres unmarked)
target.desc: HCV NS3 helicase NS3h_1b(con1) (Hepatitis C virus genotype 1b)
display.unit: Ratio
Int.* (Ratio) (Interference): 1.03

molecule: CC1=C\C(O)CC(=O)Cc2nc(co2)C(=O)N2CCC=C2C(=O)OC(C(C)C)C(C)/C=C/C(=O)NC/C=C\1.CCC1NC(=O)C(NC(=O)c2ncccc2O)C(C)OC(=O)C(c2ccccc2)NC(=O)C2CC(=O)CCN2C(=O)C(Cc2ccc(N(C)C)cc2)N(C)C(=O)C2CCCN2C1=O (centres unmarked) [Compound 125176] ({Picolinoyl(3-OH)}-T[Abu]P[ξNMePhe(4-NMe2)][ξPip(4-oxo)][Phg]; ester 1-C; configuration not given here)
target.desc: HCV NS3 helicase NS3h_1b(con1) (Hepatitis C virus genotype 1b)
display.unit: Ratio
Int.* (Ratio) (Interference): 0.90

molecule: N#C/C(=C\c1ccc2ccccc2c1)C(=O)c1ccccc1
target.desc: HCV NS3 helicase NS3h_1b(con1) (Hepatitis C virus genotype 1b)
display.unit: Ratio
Int.* (Ratio) (Interference): 1.04

molecule: CCOC(=O)c1sc2[n+](c1C)C(=O)/C(=C/c1ccc([N+](=O)[O-])cc1)S2.[Cl-]
target.desc: HCV NS3 helicase NS3h_1b(con1) (Hepatitis C virus genotype 1b)
display.unit: Ratio
Int.* (Ratio) (Interference): 1.08

molecule: Cc1cc(O)c2c(c1)C(=O)c1cc(O)cc(O)c1C2=O
target.desc: HCV NS3 helicase NS3h_1b(con1) (Hepatitis C virus genotype 1b)
display.unit: Ratio
Int.* (Ratio) (Interference): 1.05

molecule: COc1ccc(/C=C2\CCCc3ccccc3C2=O)cc1
target.desc: HCV NS3 helicase NS3h_1b(con1) (Hepatitis C virus genotype 1b)
display.unit: Ratio
Int.* (Ratio) (Interference): 1.00

molecule: COc1cc(C(C)c2cc3c(cc2OCCO)OCO3)cc(OC)c1OC (centres unmarked)
target.desc: HCV NS3 helicase NS3h_1b(con1) (Hepatitis C virus genotype 1b)
display.unit: Ratio
Int.* (Ratio) (Interference): 1.08

molecule: Cc1cccc(C)c1NC(=O)C(=O)C(c1ccccc1Cl)S(=O)(=O)Cc1ccccc1Cl (centres unmarked)
target.desc: HCV NS3 helicase NS3h_1b(con1) (Hepatitis C virus genotype 1b)
display.unit: Ratio
Int.* (Ratio) (Interference): 0.93
